Sourced from patent US8247211B2

Exercise: state measured MIC Enterococcus faecalis (GC 6189) for each of the compounds provided.
# System: Enterococcus sp.
# Procedure Text: In vitro antibacterial evaluation: minimum inhibitory concentration (MIC), broth dilution method
# Assay type: cell-based
# Test Context: strain GC 6189
Answers are plain numbers, in µg/mL.

Sample answers from the record:
Compound: COc1cc(C2OCC3OC(OC4C(CO)OC(Oc5ccc(CC6NC(=O)C(C(C)c7ccccc7)NC(=O)CNC(=O)C(CO)NC(=O)C(C(O)C7CNC(=N)N7C7OC(CO)C(O)C(O)C7O)NC(=O)C(C(O)C7CNC(=N)N7)NC6=O)cc5)C(O)C4O)C(O)C(O)C3O2)ccc1[N+](=O)[O-] (stereo not shown) [Example 153]
Target System: Enterococcus sp.
Experimental Result: 4
//
Compound: CCOc1cc(C2OCC3OC(OC4C(CO)OC(Oc5ccc(CC6NC(=O)C(C(C)c7ccccc7)NC(=O)CNC(=O)C(CO)NC(=O)C(C(O)C7CNC(=N)N7C7OC(CO)C(O)C(O)C7O)NC(=O)C(C(O)C7CNC(=N)N7)NC6=O)cc5)C(O)C4O)C(O)C(O)C3O2)ccc1[N+](=O)[O-] (stereo not shown) [Example 167]
Target System: Enterococcus sp.
Experimental Result: 32
//
Compound: CC(C)=CCCC(C)=CCN=C1NCC(C(O)C2NC(=O)C(C(O)C3CNC(=N)N3)NC(=O)C(Cc3ccc(OC4OC(CO)C(OC5OC6COC7(OC6C(O)C5O)C5CC6CC(C5)CC7C6)C(O)C4O)cc3)NC(=O)C(C(C)c3ccccc3)NC(=O)CNC(=O)C(CO)NC2=O)N1C1OC(CO)C(O)C(O)C1O (stereo not shown) [Example 82]
Target System: Enterococcus sp.
Experimental Result: 16

Next, consider the following compound.
Exercise: Quick one: MIC Enterococcus faecalis (GC 6189) for CC(c1ccccc1)C1NC(=O)CNC(=O)C(CO)NC(=O)C(C(O)C2CNC(=N)N2C2OC(CO)C(O)C(O)C2O)NC(=O)C(C(O)C2CNC(=N)N2)NC(=O)C(Cc2ccc(OC3OC(CO)C(OC4OC5COC(c6cc7c(cc6Cl)OCO7)OC5C(O)C4O)C(O)C3O)cc2)NC1=O (stereo not shown) [Example 158] ?
Solution: 4

====

Provide the reported MIC Enterococcus faecium (GC 4557) of each item.
# Test system: Enterococcus sp.
# Procedure Text: In vitro antibacterial evaluation: minimum inhibitory concentration (MIC), broth dilution method
# Type: cell-based
# Test Context: Enterococcus faecium (GC 4557); 18 hours at 35° C.
One number for each entry, in mg/L.

Consider the reported MIC Enterococcus faecium (GC 4557) for these compounds:
Compound: CC(c1ccccc1)C1NC(=O)CNC(=O)C(CO)NC(=O)C(CC2CNC(=N)N2C2OC(CO)C(O)C(O)C2O)NC(=O)C(CC2CNC(=N)N2)NC(=O)C(Cc2ccc(OC3OC(CO)C(OC4OC(CO)C(OCc5ccc(OCc6ccccc6)cc5)C(O)C4O)C(O)C3O)cc2)NC1=O (stereo not shown) [Example 246a]
Target System: Enterococcus sp.
MIC Enterococcus faecium (GC 4557) (mg/L): 2
//
Compound: CC(c1ccccc1)C1NC(=O)CNC(=O)C(CO)NC(=O)C(C(O)C2CNC(=N)N2C2OC(CO)C(O)C(O)C2O)NC(=O)C(C(O)C2CNC(=N)N2)NC(=O)C(Cc2ccc(OC3OC(CO)C(OC4OC5COC6(CCC(C(C)(C)C)CC6)OC5C(O)C4O)C(O)C3O)cc2)NC1=O (stereo not shown)
Target System: Enterococcus sp.
MIC Enterococcus faecium (GC 4557) (mg/L): 8
//
Compound: CC(C)CC(=O)OC1C(O)C(OC2C(CO)OC(Oc3ccc(CC4NC(=O)C(C(C)c5ccccc5)NC(=O)CNC(=O)C(CO)NC(=O)C(C(O)C5CNC(=N)N5C5OC(CO)C(O)C(O)C5O)NC(=O)C(C(O)C5CNC(=N)N5)NC4=O)cc3)C(O)C2O)OC2COC3(OC21)C1CC2CC(C1)CC3C2 (stereo not shown)
Target System: Enterococcus sp.
MIC Enterococcus faecium (GC 4557) (mg/L): 4

Query compound follows.
Exercise: Fill blank: measured MIC Enterococcus faecium (GC 4557) of the compound COc1ccc2cc(COC3C(CO)OC(OC4C(CO)OC(Oc5ccc(CC6NC(=O)C(C(C)c7ccccc7)NC(=O)CNC(=O)C(CO)NC(=O)C(CC7CNC(=N)N7C7OC(CO)C(O)C(O)C7O)NC(=O)C(CC7CNC(=N)N7)NC6=O)cc5)C(O)C4O)C(O)C3O)ccc2c1 (stereo not shown) [Example 245a] is ____.
Solution: 2
